Recorded IC50 for the following molecules
# test_system: MIF (Homo sapiens)
# measurement_notes: MIF tautomerase assay using pHPP as substrate
# Format: biochemical
# test_conditions: inhibition of the MIF enzyme in vitro; mean of multiple test results; read-out: Tautomerase Inhibition pIC50 (converted)

Examples with answers:
[
  {
    "line_notation": "OCCCn1cnc2c(-n3ncc4ccccc43)nc(N3CCN(c4ccc(O)cc4)CC3)nc21",
    "IC50": "100 to 977 nM"
  },
  {
    "line_notation": "Cc1nc(N2CCC(O)(c3cccc(O)c3)CC2)nc2c1ncn2-c1ccncc1",
    "IC50": "100 to 977 nM"
  },
  {
    "line_notation": "O=C1Cc2ccccc2N1c1nc(N2CCN(c3ccc(O)cc3)CC2)nc2c1ncn2CCO",
    "IC50": "100 to 977 nM"
  },
  {
    "line_notation": "COc1cccc(-n2cnc3c(C)nc(N4CCN(c5ccc(O)cc5)CC4)nc32)c1Cl",
    "IC50": "1000 to 9770 nM"
  },
  {
    "line_notation": "O=C(O)Cn1cnc2c(-n3nnc4c(C(=O)O)cccc43)nc(N3CCN(c4ccc(O)cc4)CC3)nc21",
    "IC50": "10 to 97.7 nM"
  }
]

Attention now turns to another entry.
## Task Write down the reported IC50 of Nc1nc(N2CCC(O)(c3ccccc3)CC2)nc2c1ncn2-c1ccncc1 , test system: MIF (Homo sapiens).
## Result > 10000 nM

----------
# test_system: MIF (Homo sapiens, UniProt P14174)
# measurement_notes: MIF tautomerase assay using pHPP as substrate
# Format: biochemical
# test_conditions: inhibition of the MIF enzyme in vitro; mean of multiple test results; read-out: Tautomerase Inhibition pIC50 (converted)
attribute_measured: IC50

Examples with answers:
[
  {
    "molecule": "O=C(O)Cn1cnc2c(-n3ncc4cc(CO)ccc43)nc(N3CCN(c4ccc(O)cc4)CC3)nc21 [Example 109]",
    "obs_value": "10 to 97.7 nM"
  },
  {
    "molecule": "CCC(CO)n1cnc2c(N3CCc4ccccc43)nc(N3CCN(c4ccc(O)cc4)CC3)nc21 (stereo not drawn) [Example 30]",
    "obs_value": "1000 to 9770 nM"
  },
  {
    "molecule": "CNC(=O)Cn1cnc2c(-n3cnc4ccccc43)nc(N3CCN(c4ccc(O)cc4)CC3)nc21 [Example 42]",
    "obs_value": "1000 to 9770 nM"
  },
  {
    "molecule": "O=C(O)Cn1cnc2c(-n3nnc4cccnc43)nc(N3CCN(c4ccc(O)cc4)CC3)nc21 [Example 120]",
    "obs_value": "10 to 97.7 nM"
  }
]

## Task Write down the reported IC50 of Oc1ccc(N2CCN(c3nc(NC4CCCC4)c4ncn(-c5cccnc5)c4n3)CC2)cc1 [Example 96] , test system: MIF (Homo sapiens, UniProt P14174).
## Result 1000 to 9770 nM

## Task Write down the reported IC50 of Cc1nc(N2CCN(c3ccc(O)cc3)CC2)nc2c1ncn2-c1cccnc1 [Example 59] , test system: MIF (Homo sapiens, UniProt P14174).
## Result 100 to 977 nM

## Task Write down the reported IC50 of CN(CC(=O)O)c1nc(N2CCN(c3ccc(O)cc3)CC2)nc2c1ncn2-c1ccncc1 [Example 166] , test system: MIF (Homo sapiens, UniProt P14174).
## Result 10 to 97.7 nM

## Task Write down the reported IC50 of O=C(O)Cn1cnc2c(-n3ncc4ccccc43)nc(N3CC(O)(c4ccccc4)C3)nc21 [Example 221] , test system: MIF (Homo sapiens, UniProt P14174).
## Result 100 to 977 nM

----------
# test_system: MIF (Homo sapiens)
# measurement_notes: MIF tautomerase assay using pHPP as substrate
# Format: biochemical
# test_conditions: inhibition of the MIF enzyme in vitro; mean of multiple test results; read-out: Tautomerase Inhibition pIC50 (converted)
attribute_measured: IC50

## Task Quick one: IC50 of CC(C)(C(=O)O)n1cnc2c(-n3ncc4ccccc43)nc(N3CCN(c4ccc(O)cn4)CC3)nc21 ?
## Result 10 to 97.7 nM

## Task Quick one: IC50 of OCCn1cnc2c(-n3ncc4ccccc43)nc(N3CC=C(c4ccc(O)cc4)CC3)nc21 ?
## Result > 10000 nM

## Task Quick one: IC50 of O=C(O)CCN(CCO)c1nc(N2CCN(c3ccc(O)cc3)CC2)nc2c1ncn2-c1ccncc1 ?
## Result 10 to 97.7 nM

## Task Quick one: IC50 of Nc1nc(N2CCN(c3ccc(O)cc3)CC2)nc2c1ncn2C1CCCC(C(=O)O)C1 (mixture of isomers) ?
## Result > 10000 nM

## Task Quick one: IC50 of CN(C)Cc1cccc2c1cnn2-c1nc(N2CCN(c3ccc(O)cc3)CC2)nc2c1ncn2CC(=O)O ?
## Result 100 to 977 nM

## Task Quick one: IC50 of COc1ccc(-n2cnc3c(N)nc(N4CCN(c5ccc(O)cc5)CC4)nc32)c(OC)n1 ?
## Result 1000 to 9770 nM

## Task Quick one: IC50 of CC(C)(C(=O)O)n1cnc2c(-n3ncc4ccccc43)nc(N3CCN(c4ccc(O)cc4)CC3)nc21 ?
## Result 10 to 97.7 nM

## Task Quick one: IC50 of CN(CC(=O)O)c1nc(N2CCC(O)(c3ccc(O)cc3)CC2)nc2c1ncn2-c1ccncc1 ?
## Result 100 to 977 nM

----------
Recorded IC50 for the following compounds
# test_system: MIF (Homo sapiens)
# Sequence (P14174 2-115 limits assumed): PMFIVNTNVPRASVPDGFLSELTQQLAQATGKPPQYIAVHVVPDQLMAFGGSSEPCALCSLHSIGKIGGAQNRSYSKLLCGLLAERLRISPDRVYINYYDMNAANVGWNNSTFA
# measurement_notes: MIF tautomerase assay using pHPP as substrate
# Format: biochemical
# test_conditions: inhibition of the MIF enzyme in vitro; mean of multiple test results; read-out: Tautomerase Inhibition pIC50 (converted)

Examples with answers:
[
  {
    "compound": "OCCn1cnc2c(-n3ncc4ccccc43)nc(N3CCN(c4ccc(CO)cn4)CC3)nc21",
    "test_system": "MIF (Homo sapiens)",
    "IC50": "> 10 µM"
  },
  {
    "compound": "Cc1nc(N2CCC(O)(c3ccc(O)cc3)CC2)nc2c1ncn2CCCCC(=O)O",
    "test_system": "MIF (Homo sapiens)",
    "IC50": "> 10 µM"
  },
  {
    "compound": "O=C(O)Cn1cnc2c(-n3nnc4ccncc43)nc(N3CCN(c4ccc(O)cc4)CC3)nc21",
    "test_system": "MIF (Homo sapiens)",
    "IC50": "0.01 to 0.0977 µM"
  },
  {
    "compound": "Cc1nc(N2CCN(c3ccc(O)cc3)CC2)nc2c1ncn2-c1cccnc1 [Example 229]",
    "test_system": "MIF (Homo sapiens)",
    "IC50": "0.01 to 0.0977 µM"
  }
]

## Task Quick one: IC50 of O=C(O)Cn1cnc2c(-n3ncc4ccccc43)nc(N3CCN(c4ccc5[nH]ncc5c4)CC3)nc21 ?
## Result > 10 µM

----------
# test_system: MIF (Homo sapiens, UniProt P14174)
# Sequence (P14174 2-115 limits assumed): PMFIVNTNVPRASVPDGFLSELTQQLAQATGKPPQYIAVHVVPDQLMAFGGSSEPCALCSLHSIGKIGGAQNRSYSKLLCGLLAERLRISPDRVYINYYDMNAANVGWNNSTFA
# measurement_notes: MIF tautomerase assay using pHPP as substrate
# Assay type: biochemical
# test_conditions: inhibition of the MIF enzyme in vitro; mean of multiple test results; read-out: Tautomerase Inhibition pIC50 (converted)
attribute_measured: IC50

Examples with answers:
[
  {
    "molecule": "Nc1nc(N2CCC(O)(C#CCO)CC2)nc2c1ncn2-c1ccncc1",
    "test_system": "MIF (Homo sapiens, UniProt P14174)",
    "obs_value": "> 10000 nM"
  },
  {
    "molecule": "OC1(c2cn[nH]c2)CN(c2ncc3ncn(-c4ccncc4)c3n2)C1",
    "test_system": "MIF (Homo sapiens, UniProt P14174)",
    "obs_value": "> 10000 nM"
  },
  {
    "molecule": "O=C(O)C1CCN(c2nc(N3CCN(c4ccccc4)CC3)nc3c2ncn3-c2ccncc2)C1 (centres unmarked)",
    "test_system": "MIF (Homo sapiens, UniProt P14174)",
    "obs_value": "> 10000 nM"
  },
  {
    "molecule": "N#Cc1ccc(-n2cnc3c(N)nc(N4CCN(c5ccc(O)cc5)CC4)nc32)cn1",
    "test_system": "MIF (Homo sapiens, UniProt P14174)",
    "obs_value": "100 to 977 nM"
  },
  {
    "molecule": "O=C(O)CCCCn1cnc2c(-n3ncc4ccccc43)nc(N3CCC(O)(c4ccc(O)cc4)CC3)nc21",
    "test_system": "MIF (Homo sapiens, UniProt P14174)",
    "obs_value": "10 to 97.7 nM"
  }
]

## Task Write down the reported IC50 of Nc1nc(N2CC(O)(c3cn[nH]c3)C2)nc2c1ncn2-c1ccncc1 , test system: MIF (Homo sapiens, UniProt P14174).
## Result > 10000 nM

## Task Write down the reported IC50 of CCC(CO)N(C)c1nc(N2CCN(c3ccc(O)cc3)CC2)nc2c1ncn2-c1cccnc1 (centres unmarked) [Example 169] , test system: MIF (Homo sapiens, UniProt P14174).
## Result 10 to 97.7 nM

## Task Write down the reported IC50 of C#CCn1cnc2c(-n3ncc4ccccc43)nc(N3CCC(O)(c4ccc(O)cc4)CC3)nc21 , test system: MIF (Homo sapiens, UniProt P14174).
## Result 100 to 977 nM

## Task Write down the reported IC50 of CN(CCC(=O)O)c1nc(N2CCN(c3ccc(O)cc3)CC2)nc2c1ncn2-c1ccncc1 , test system: MIF (Homo sapiens, UniProt P14174).
## Result 10 to 97.7 nM
